B1: library; numbered along this chain (parent)
chain: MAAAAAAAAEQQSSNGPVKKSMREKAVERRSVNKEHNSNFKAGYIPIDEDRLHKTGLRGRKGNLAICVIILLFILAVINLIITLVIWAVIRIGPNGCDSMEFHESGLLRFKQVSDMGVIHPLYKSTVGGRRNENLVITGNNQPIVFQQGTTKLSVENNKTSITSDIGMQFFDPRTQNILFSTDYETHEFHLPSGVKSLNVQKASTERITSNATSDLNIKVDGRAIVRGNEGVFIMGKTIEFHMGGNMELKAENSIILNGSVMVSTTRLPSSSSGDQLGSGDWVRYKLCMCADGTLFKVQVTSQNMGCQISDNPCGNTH

variants of: B1; assay: SGCB cell-surface expression functional score (HA stain, bin4 vs bin1, normalised to synonymous) (log10 ratio); higher = more cell-surface SGCB (functional)
parameter: SGCB cell-surface expression functional score (log10)
Provide a numeric answer; units are not to be included.

Item "S38Y" : provide SGCB cell-surface expression functional score (log10) -0.07

Could you please provide reported SGCB cell-surface expression functional score (log10) for "I45Y" ? Thanks! 0.68

Quote SGCB cell-surface expression functional score (log10) reported for "S302H" please. 0.54

Write down SGCB cell-surface expression functional score (log10) measured for item "L52E" 0.55

Provide only the value of recorded SGCB cell-surface expression functional score (log10) for "E206V" 0.45

For "T265H" , write its SGCB cell-surface expression functional score (log10). 0.75

Look up and state reported SGCB cell-surface expression functional score (log10) for "I82K" 0.1

Please indicate SGCB cell-surface expression functional score (log10) recorded for "R23I" -0.31

Identify the reported SGCB cell-surface expression functional score (log10) for the following entry. "C288D" 0.01

Return the recorded SGCB cell-surface expression functional score (log10) value; entry: "Q12T" -0.35

Return reported SGCB cell-surface expression functional score (log10). Input variant: "D172C" 0.95
